Measured growth inhibition, listed per entry.
Experiment: NCI Yeast Anticancer Drug Screen. Data for the mgt1 strain (AID 153)
Settings: S. cerevisiae mgt1 mutant growth inhibition; at 3.7 µM; hits give high values
Experimental: Growth inhibition of yeast strains with defined genetic alterations is measured as a screen for potential anti-cancer activity. Selected strains with alterations in DNA damage repair or cell cycle control were exposed to compounds and growth inhibition was measured relative to vehicle treated controls. The strain used in this assay is mgt1
Compounds without any hit were thinned out: in the full panel of roughly 79,000, 15% have a hit.

compound	growth inhibition [%]
ClCCCOc1c(Cl)cc(Cl)cc1Cl	-1
Cc1ccc([N+](=O)[O-])c2c(NCCC[N+](C)(C)[O-])c3ccccc3nc12	0
Cc1cccc2c(Cl)c3cccc(C)c3nc12	1
COC1=CCC23C(=O)C=CC(=O)C2(C1)C(=O)c1ccccc1C3=O (stereo unspecified)	-14
Cc1ccc(S(=O)(=O)NC(=O)C2C(=O)CC3(CCCCC3)CC2=O)cc1	-16
CCOP(=O)(OCC)/C(C#N)=C\c1cccc2ccccc12	-10

---

test: NCI Yeast Anticancer Drug Screen. Data for the mgt1 strain (AID 153); settings: S. cerevisiae mgt1 mutant growth inhibition; at 33.0 µM; hits give high values
About 79,000 compounds went through this panel and 15% of them were active in at least one assay; those are over-represented in the sample as a whole.
Outcome: Condition met for growth inhibition of at least 70%; Condition not met for anything lower.

compound	category_label
COc1cccc(/C=C2\S/C(=N/Nc3nc(-c4ccc([N+](=O)[O-])cc4)cs3)NC2=O)c1O	Condition not met
CN(C)CC1=Nc2cccc3cccc(c23)N1	Condition not met
CC(C(=O)N1C(=O)N(C(=O)C(C)C(O)c2ccccc2)C2CCCCC21)C(O)c1ccccc1 (stereo not given)	Condition not met
CC(C)OC(=O)NNc1c(Cl)cc(Cl)cc1Cl	Condition not met
CCN(CC)C(=S)N/N=C(\C)c1ccccc1O	Condition met
CCOP(=O)(OCC)/C(C#N)=C/c1ccc(-c2ccc(F)cc2F)o1	Condition not met
CCC[CH2][Sn]([CH2]CCC)([CH2]CCC)/[C](=C/[Si](C)(C)c1ccccc1)c1ccc2c(c1)OCO2	Condition met
O=[N+]([O-])c1ccc(/C=C\c2ccc3c(c2)OCO3)c([N+](=O)[O-])c1	Condition not met
CCc1c(Cl)c(C)c(Cl)c(O)c1Cl	Condition met

---

Parameter: growth inhibition. Scope: all listed entries.
assay: NCI Yeast Anticancer Drug Screen. Data for the wt1 strain (AID 149);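 also: 0% = growth of vehicle-treated wt1 cultures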; conditions: S. cerevisiae wt1 strain (SPY 50644) growth inhibition; at 3.7 µM; hits give high values
The panel holds about 79,000 compounds, 15% with a hit somewhere; the sample as a whole holds those more often.

compound	uom	growth inhibition
Oc1c2c(c(O)c3ccccc13)C1(N=N2)c2ccccc2Oc2ccccc21	%	34
C=C(C(=O)OC)N1C(=O)CC(C)C1=O (stereo not drawn)	%	15
COC(=O)C(=O)c1c(-c2ccc(Cl)c(Cl)c2)[nH]c2[nH]n(-c3ccccc3)c(=O)c2c1=O	%	-3
O=C1C[C@H]2[C@H](c3ccc(Br)cc3)[C@H]3C(=O)c4ccccc4NC(=O)[C@@H]3[C@@]2(O)c2ccccc2N1	%	10
COc1ccc2c3c1OC(C)C31CC(=O)CCC1CC2 (stereo not drawn)	%	-4
CCCNC(=O)OCc1c(COC(=O)NCCC)c(-c2ccc(Cl)c(Cl)c2)n2c1CCC2	%	-38
CN(CCOc1ccc(Cl)cc1)CCOc1ccc(Cl)cc1	%	7
CC1(c2ccccc2)O[C@@H]2C[C@H]3[C@@H]4CCC5=CC(=O)C=C[C@]5(C)[C@@]4(F)[C@@H](O)C[C@]3(C)[C@]2(C(=O)CO)O1 (stereo partly drawn)	%	6
CCCCCCCCCCCCCCN	%	-5
Nc1ccc(/C=C/c2ccc3cccnc3c2)cc1	%	-1
O=C1Oc2ccccc2C(=O)/C1=C/N1C(=O)N/C(=C\c2ccccc2Br)C1=O	%	7
CN(C)/C(=N/C(=S)Nc1ccccc1)SCc1ccccc1	%	-3
O=C(CCSC1=NCCCN1)c1ccc(F)cc1	%	-61
CCCNCC(=O)O[C@]1(CC)C(=O)OCc2c1cc1n(c2=O)Cc2cc3ccccc3nc2-1	%	12
Nc1cccc(-c2cc[cH-]c2)c1.[Fe+2].c1cc[cH-]c1	%	-3
O=C1C(=O)N(c2ccccc2)[C@@]2(c3ccccc3)C(=Nc3ccccc3)OC(c3ccccc3)=C12	%	-1
COC(=O)C1CCCCC1C(=O)Nc1ccccc1 (stereo not drawn)	%	-2
Fc1ccc(Nc2ccc3ccccc3c2)cc1	%	0
O=C1C(=O)c2cccc([N+](=O)[O-])c2-c2ccccc21	%	20
O=[N+]([O-])c1ccc(/C=C\c2ccc3c(c2)OCO3)c([N+](=O)[O-])c1	%	-2
COC(=O)C(=O)CC(=O)c1cccc(OC)c1	%	9
CCCCN(CCC#N)c1ccc(/C=C/c2ccnc3ccccc23)cc1	%	-10
O=C(C#Cc1ccccc1)Nc1ccccc1	%	-10
C[n+]1c(-c2ccc(/C=N/NC(=O)c3ccc(C(=O)N/N=C/c4ccc(-c5cn6ccccc6[n+]5C)cc4)cc3)cc2)cn2ccccc21	%	16
CC1(C)CC(=O)C(C=NC(=S)C(N)=S)=C(O)C1	%	-39
O=C(O)c1ccc2cc(Cl)c3ccccc3c2c1	%	3
O=S1(=O)CCC2=CC(C(F)(F)F)=CC(C(F)(F)F)=CN21	%	29
CCN1CCC(O)(c2ccc(Oc3ccc(Cl)cc3)cc2)C(C(=O)c2ccc(Oc3ccc(Cl)cc3)cc2)C1 (stereo not drawn)	%	-27
Cc1cccc2c(Cl)c3cccc(C)c3nc12	%	-3
COc1ccc2nc3cccc([N+](=O)[O-])c3c(NCCNCCO)c2c1	%	3
COc1ccc(C(OCC2OC(n3cnc4c(=O)n(Cc5ccccc5[N+](=O)[O-])nnc43)C(O)C2O)(c2ccccc2)c2ccc(OC)cc2)cc1 (stereo not drawn)	%	-11
COC(=O)C(Cl)(Cl)N=Nc1c(Cl)cc(Cl)c(C)c1Cl	%	52
CC(C)OC(=O)NNc1cc(Cl)ccc1Cl	%	5
CC1(C)CC(=O)C(C(=O)Nc2cccs2)=C(O)C1	%	28
O=C1C=C(NCCc2cc(Br)c(O)c(Br)c2)C(=O)c2ncccc21	%	19
N#Cc1nc(Nc2ccc(Cl)cc2)sc1N	%	-4
Nc1ccc2cc(Br)ccc2c1Br	%	-3
O=C(O)CNC(c1ccccc1)(c1ccccc1)c1ccccc1	%	-9
C=CCNC1=C2C[C@@H](C)C[C@H](OC)[C@H](O)[C@@H](C)/C=C(\C)[C@H](OC(N)=O)[C@@H](OC)/C=C\C=C(/C)C(=O)NC(=CC1=O)C2=O	%	-53
CCCCN(CCCC)c1ccc(N=Nc2ccc(S(=O)(=O)O)cc2)cc1	%	2
COc1ccc(C(=O)/C=C\c2ccc(Cl)c(Cl)c2)cc1	%	26
Cc1ccc(S(=O)(=O)Nc2cccc3cccnc23)cc1	%	14
COC(=O)c1ccccc1N=NNc1cccc(SC)c1	%	-31

---

Assay: NCI Yeast Anticancer Drug Screen. Data for the rad50EPP+ strain (AID 151);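 also: 0% = growth of vehicle-treated control cultures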
Conditions: S. cerevisiae rad50 mutant strain, at 11.0 µM
Method: Growth inhibition of yeast strains with defined genetic alterations is measured as a screen for potential anti-cancer activity. Selected strains with alterations in DNA damage repair or cell cycle control were exposed to compounds and growth inhibition was measured relative to vehicle treated controls. The strain used in this assay is rad50EPP+
Compounds without any hit were thinned out: in the full panel of roughly 79,000, 15% have a hit. Calls of active or inactive are those of the source. Cut-off read from the data, not from the text of the source: active = growth inhibition above about 70%; inactive = the rest.
Classes used: y (active), n (inactive)

molecule	category_label
Nc1ccc(/C=C/c2ccc3cccnc3c2)cc1	n
CCN1CCC(O)(c2ccc(Oc3ccc(Cl)cc3)cc2)C(C(=O)c2ccc(Oc3ccc(Cl)cc3)cc2)C1 (stereo unspecified)	n
CCS(=O)(=O)Nc1ccc(Nc2c3ccccc3nc3ccccc23)c(OC)c1	n
O/N=c1/ccn(O)c2ccccc12	y
O=C1c2ccccc2C(=O)c2sc(Nc3ccccc3Cl)nc21	y
N#C/C(=C\NC(=S)Nc1ccc(S(N)(=O)=O)cc1)C(=O)c1ccc2ccccc2c1	n
Cc1cccc2c1C1c3c(C)cccc3C(CC(=O)O)CC1CC2 (stereo unspecified)	n
O=S(=O)(c1ccccc1)N1CN2CN(C1)CN(S(=O)(=O)c1ccccc1)C2	n
CC(C)OC(=O)NNc1cc(Cl)ccc1Cl	n
COc1ccc2nc3cccc([N+](=O)[O-])c3c(NCCNCCO)c2c1	n
CCN(CC)C(=S)N/N=C(\C)c1ccccc1O	n

---

experiment: NCI Yeast Anticancer Drug Screen. Data for the rad14 strain (AID 159);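 also: 0% = growth of vehicle-treated control cultures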; settings: S. cerevisiae rad14 strain growth inhibition; at 3.7 µM
Compounds without any hit were thinned out: in the full panel of roughly 79,000, 15% have a hit. The source made the active and inactive calls. Rule as the data show it: active = growth inhibition above about 70%; inactive = the rest.
Outcomes: label 1 = active, label 0 = inactive

compound	category_label
CN(C)/C(=N/C(=S)Nc1ccccc1)SCc1ccccc1	label 0
O=S(=O)(NNc1ccccc1)c1ccccc1	label 0
CC(C)OP(=O)(OC(C)C)C(=NCCO)NNc1ccc([N+](=O)[O-])cc1	label 0
CC1CN(/N=C\c2ccc([N+](=O)[O-])o2)C(=O)O1 (stereo not given)	label 0
CCN(CC)CCNc1ccc(C)c2sc3ccc(O)cc3c(=O)c12	label 0
OC1(C#CI)CCCCC1	label 0
CC(C)[Si]1(C(C)C)OCC2OC(n3cnc4c(N)ncnc43)C(N)C2O[Si](C(C)C)(C(C)C)O1 (stereo not given)	label 0
S=C1C(=Nc2ccccc2)N(c2ccccc2)/C(=N\c2ccccn2)N1c1ccccc1	label 0
Cc1ccc(Nc2n[nH]c(=S)s2)c(C)c1	label 0
Cc1cc(Cl)ccc1NC(=O)/C(Cl)=C(/Cl)C(=O)O	label 0
Cc1ccc(C)c(C(=N)c2ccccc2Cc2ccccc2)c1	label 0
CCOC(=O)/C(=C\c1cccc(C)c1)C(C)=O	label 0
CCOc1ccc2nc3ccccc3c(N)c2c1	label 0
c1c[nH]c(CN2CCN(Cc3ncc[nH]3)CC2)n1	label 0
C=C(C(=O)OC)N1C(=O)CC(C)C1=O (stereo not given)	label 0
C/C(=N/NC(=S)Nc1ccccc1C)c1ccccn1	label 0
O=c1cccccc1[O-].O=c1cccccc1[O-].O=c1cccccc1[O-].[Eu+3]	label 0
CCCCCCCCN1COCC(COc2ccccc2C)OC1 (stereo not given)	label 0
O/N=c1/ccn(O)c2ccccc12	label 1
ClCCCOc1c(Cl)cc(Cl)cc1Cl	label 0
O=C1C=C(Br)C(=O)c2ccccc21	label 0
CC(C)C(c1ccccc1)c1ccccc1	label 0
O=C(NOC(=O)c1ccc([N+](=O)[O-])cc1)c1ccc(Cl)cc1	label 0
CN(N=O)C(=O)Nc1ccc(C(=O)O)cc1	label 0
C[C@H](CCC1=NC(C)(C)CO1)C1CCC2[C@@H]3C(O)C[C@@H]4CC(O)CC[C@]4(C)C3CC[C@@]21C (stereo not given in full)	label 0
CC1CCC(C2=CSC3CCCCC3N2)CC1 (stereo not given)	label 0
Cc1nc2sc3c(c2c(=O)o1)CCCC3	label 0
N#CCC(=O)N/N=C(\c1ccccc1)C(c1ccccc1)C1(O)C(=O)Nc2c(Cl)ccc(Cl)c21 (stereo not given)	label 0
CCOC(=O)CC1(C)/C(=N\Nc2ccc([N+](=O)[O-])cc2[N+](=O)[O-])CCC2C1CCC1(C)C(C(C)CCCC(C)C)CCC21 (stereo not given)	label 0
CN(C)CCNc1ccc2ncn3c4ccc(O)cc4c(=O)c1c23	label 0
COc1ccc(C2CC(C)(N3CCCC3)Oc3cc4c(cc32)OCO4)cc1 (stereo not given)	label 0
CC(C)OC(=O)NNc1c(Cl)cc(Cl)cc1Cl	label 0
COc1cc(OC)c(CSCC(NC(=O)OCC2c3ccccc3-c3ccccc32)C(=O)O)c(OC)c1 (stereo not given)	label 0
O=C(NC(N1CCN(c2cc3c(cc2F)c(=O)c(C(=O)O)cn3C2CC2)CC1)(C(F)(F)F)C(F)(F)F)c1ccccc1	label 0
CC1=CN2C(c3ccccc3)=NON(c3ccc(C)cn3)C2C=C1 (stereo not given)	label 0
O=C1C(CCSc2ccccc2)C(=O)N(c2ccccc2)C1c1ccccc1 (stereo not given)	label 0
COc1ccc2nc3cccc([N+](=O)[O-])c3c(NCCNCCN(C)C)c2c1	label 0
Nc1cccc(-c2cc[cH-]c2)c1.[Fe+2].c1cc[cH-]c1	label 0
CCOC(=O)/C(=C\c1ccc(F)cc1)C(C)=O	label 0
CN(C)CCNCCCNc1c2ccccc2nc2cccc([N+](=O)[O-])c12	label 0
O=C(c1ccccc1)[C@H]1Nc2ccc(Cl)cc2[C@H]2OCCC[C@@H]12	label 0
Cc1cccc(C)c1NC(=O)CCC(=O)C(C)C(=O)c1ccc(O)cc1 (stereo not given)	label 0
O=C1C=C(NCCc2cc(Br)c(O)c(Br)c2)C(=O)c2ncccc21	label 0
CC1=CC(=O)C=CC1=Nc1cc(Cl)c(O)c(Cl)c1	label 0
CCCCCCCCCCCCCCCCCCNc1nc(=O)n(C2CC(OP(=O)(O)OCC3OC(n4cc(F)c(=O)[nH]c4=O)CC3O)C(CO)O2)cc1F (stereo not given)	label 0
